test: The drug is tested on Collinsella intestinalis strain: DSM13280 for biotransformation. The drug concentrations were measured before and after a 12-h incubation by liquid-chromatography-coupled mass spectrometry (LC–MS); conditions: 2 µM
OBSERVED PROPERTY: Bacterial Biotransformation

{"COMPOUND": "Cc1ccccc1N1C(=O)c2cc(S(N)(=O)=O)c(Cl)cc2NC1C (stereo unspecified)", "TEST RESULT": "Compound NOT metabolized"}
{"COMPOUND": "COC(=O)[C@H](c1ccccc1Cl)N1CCc2sccc2C1.O=S(=O)(O)O [CLOPIDOGREL BISULFATE]", "TEST RESULT": "Compound NOT metabolized"}
{"COMPOUND": "COc1cc2c(c(OC)c1OC)-c1ccc(OC)c(=O)cc1[C@@H](NC(C)=O)CC2", "TEST RESULT": "Compound NOT metabolized"}
{"COMPOUND": "CC(C)OC(=O)C(C)(C)Oc1ccc(C(=O)c2ccc(Cl)cc2)cc1 [FENOFIBRATE]", "TEST RESULT": "Compound NOT metabolized"}

Give Bacterial Biotransformation for each of the items listed below.
1. CCN(CC)CCCC(C)Nc1c2ccc(Cl)cc2nc2ccc(OC)cc12 (stereo unspecified)
2. CCN(CC)CCOC(=O)C1(C2CCCCC2)CCCCC1
3. C=CC[C@@H]1/C=C(\C)C[C@H](C)C[C@H](OC)[C@H]2O[C@@](O)(C(=O)C(=O)N3CCCC[C@H]3C(=O)O[C@H](/C(C)=C/[C@@H]3CC[C@@H](O)[C@H](OC)C3)[C@H](C)[C@@H](O)CC1=O)[C@H](C)C[C@@H]2OC.O
4. CC(CCc1ccccc1)NCC(O)c1ccc(O)c(C(N)=O)c1 (stereo unspecified)

Response:
Compound NOT metabolized
Compound NOT metabolized
Compound metabolized
Compound NOT metabolized

Give Bacterial Biotransformation for all compounds that follow.
1. CCOc1cc(CC(=O)N[C@@H](CC(C)C)c2ccccc2N2CCCCC2)ccc1C(=O)O [REPAGLINIDE]
2. COc1ccc2c(c1OC)C(=O)O[C@@H]2[C@H]1c2c(cc3c(c2OC)OCO3)CCN1C
3. Nc1nc(NC2CC2)c2ncn([C@H]3C=C[C@@H](CO)C3)c2n1.Nc1nc(NC2CC2)c2ncn([C@H]3C=C[C@@H](CO)C3)c2n1.O=S(=O)(O)O [ABACAVIR SULFATE]
4. COc1ccc([C@@H]2Sc3ccccc3N(CCN(C)C)C(=O)[C@@H]2OC(C)=O)cc1
5. C[C@H]1O[C@@H](O[C@H]2[C@@H](O)C[C@H](O[C@H]3[C@@H](O)C[C@H](O[C@H]4CC[C@@]5(C)[C@H](CC[C@@H]6[C@@H]5C[C@@H](O)[C@]5(C)[C@@H](C7=CC(=O)OC7)CC[C@]65O)C4)O[C@@H]3C)O[C@@H]2C)C[C@H](O)[C@@H]1O

Response:
["Compound NOT metabolized", "Compound metabolized", "Compound NOT metabolized", "Compound NOT metabolized", "Compound NOT metabolized"]

Please report Bacterial Biotransformation for every entry that follows.
1. CCN(CC)CC#CCOC(=O)C(O)(c1ccccc1)C1CCCCC1.Cl (stereo unspecified) [OXYBUTYNIN CHLORIDE]
2. CO[C@]12C[C@@H](COC(=O)c3cncc(Br)c3)CN(C)[C@@H]1Cc1cn(C)c3cccc2c13
3. CC(N)C12CC3CC(CC(C3)C1)C2 (stereo unspecified)
4. CC(C)(C(=O)O)c1ccc(C(O)CCCN2CCC(C(O)(c3ccccc3)c3ccccc3)CC2)cc1 (stereo unspecified) [FEXOFENADINE]
5. CN(C)CCOC(C)(c1ccccc1)c1ccccn1.O=C(O)CCC(=O)O (stereo unspecified) [DOXYLAMINE SUCCINATE]
6. CC(C)(Oc1ccc(CCNC(=O)c2ccc(Cl)cc2)cc1)C(=O)O [BEZAFIBRATE]
7. c1ccc([C@H]2CN3CCSC3=N2)cc1
8. O=C1[C@H](CC[C@H](O)c2ccc(F)cc2)[C@@H](c2ccc(O)cc2)N1c1ccc(F)cc1

Response:
1. Compound NOT metabolized
2. Compound NOT metabolized
3. Compound NOT metabolized
4. Compound NOT metabolized
5. Compound NOT metabolized
6. Compound metabolized
7. Compound NOT metabolized
8. Compound NOT metabolized

Give Bacterial Biotransformation for each of the items listed below.
1. CCCCCOC(=O)Nc1nc(=O)n([C@@H]2O[C@H](C)[C@@H](O)[C@H]2O)cc1F
2. CCN(CC)C(=O)/C(C#N)=C/c1cc(O)c(O)c([N+](=O)[O-])c1
3. CN1CCOC(c2ccccc2)c2ccccc2C1 (stereo unspecified)
4. COc1ccc2cc([C@H](C)C(=O)O)ccc2c1
5. CC(=O)OCC(=O)NCCCOc1cccc(CN2CCCCC2)c1 [ROXATIDINE ACETATE]
6. CC(=O)CCCCn1c(=O)c2c(ncn2C)n(C)c1=O

Response:
Compound NOT metabolized
Compound metabolized
Compound NOT metabolized
Compound NOT metabolized
Compound metabolized
Compound NOT metabolized

All figures here come from ChEMBL document CHEMBL5303573.
